measurement_name: melting point

CC(C)(Cc1ccccc1)C(NC(=O)CCc1ccccc1)Nc1c(Nc2cccnc2)c(=O)c1=O (stereo not given) : 221 to 223 °C

Look up melting point for this molecule: O=C1c2ccc([N+](=O)[O-])c3c([N+](=O)[O-])c(Br)cc(c23)C(=O)N1O
233 to 234 °C

Same question, C#CCn1ccn(C)c1=O this time
69 to 72 °C

Same question, COC1([N+](=O)[O-])C=CC(C=Cc2ccccc2)=CC1 (stereo not given) this time
131 to 132 °C

Same question, CC(C)(C)OC(=O)c1ncn2c1[C@@H]1CCCN1C(=O)c1cc(Cl)ccc1-2 this time
157 to 158 °C

Same question, CC(C)(C)c1ccc(C(=O)Nc2cn3cc(-n4cccc4)ccc3n2)cc1 this time
274 to 275 °C

Same question, CCCc1cccc2nc3c(=O)[nH][nH]c(=O)c3c(O)c12 this time
> 400 °C

Same question, Cc1cc(C=NN2CCNC2=O)no1 this time
195 to 197 °C

Same question, CC(C)Oc1nc(-n2cccn2)nc(Cl)c1-c1c(F)cc(F)cc1F this time
106 to 107 °C

Same question, Cn1c(=O)c2c(ncn2C(=O)CCC(=O)n2cnc3c2c(=O)n(C)c(=O)n3C)n(C)c1=O this time
266 °C

Same question, O=C(CO)NCCCn1c(-c2ccc(Br)cc2)csc1=Nc1ccccc1 this time
185 to 186 °C

Same question, CC(C)CC(=O)c1c(-c2ccc3cc(OCC(=O)O)cc(Br)c3c2)oc2ccccc12 this time
140 to 142 °C

Same question, CCOC1CC(n2cc(CC)c(=O)[nH]c2=O)OC1CN (stereo not given) this time
122 to 123 °C

Same question, CCCc1cnc2c(c1)C(=O)N1C2=NC(=O)C1(C)C(C)C (stereo not given) this time
116 °C

Same question, CC1COCc2nc3c(N)nc4ccc(O)cc4c3n21 (stereo not given) this time
262 to 264 °C
